Data origin: patent US10577363B2

study.system: SMYD3 (Homo sapiens (Human), UniProt Q9H7B4)
Sequence (Q9H7B4 whole entry): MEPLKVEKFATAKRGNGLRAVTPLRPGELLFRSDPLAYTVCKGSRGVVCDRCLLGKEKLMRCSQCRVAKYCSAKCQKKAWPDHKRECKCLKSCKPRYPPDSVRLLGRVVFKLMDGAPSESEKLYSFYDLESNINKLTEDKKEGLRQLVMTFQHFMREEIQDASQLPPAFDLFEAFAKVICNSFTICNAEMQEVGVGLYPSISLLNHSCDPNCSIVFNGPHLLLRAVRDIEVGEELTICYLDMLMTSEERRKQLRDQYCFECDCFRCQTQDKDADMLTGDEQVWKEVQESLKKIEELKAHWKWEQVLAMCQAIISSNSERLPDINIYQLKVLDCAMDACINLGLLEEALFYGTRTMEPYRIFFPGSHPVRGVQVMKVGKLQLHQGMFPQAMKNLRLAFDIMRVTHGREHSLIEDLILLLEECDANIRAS
run.description: SMYD3 cell assay (Trimethyl-MEKK2 In-Cell Western in 293T/17 cells)
Type: cell-based
protocol.conditions: IC50 values are an average of n = 1 to n = 50; read-out: SMYD3 Cell IC50*
value.kind: IC50 (nM)
Provide the reading as a plain figure in nM.

Study these solved cases before continuing.
compound | IC50 / nM
CN1CCCC1CS(=O)(=O)N1[C@@H]2CC[C@H]1C[C@@H](NC(=O)c1cc(C3CC3)on1)C2 (stereo partly shown) [compound 982] | 819
CN1CCCC[C@H]1CS(=O)(=O)N1[C@@H]2CC[C@H]1C[C@@H](NC(=O)c1cc(C3CC3)on1)C2 [compound 976] | 555

Prompt line: Fill in the blank: the reported IC50 of O=C(N[C@H]1C[C@H]2CC[C@@H](C1)N2S(=O)(=O)C[C@H]1CCCCN1)c1cc(C2CC2)on1 [compound 971] is ____.
Response line: 466

Prompt line: Fill in the blank: the reported IC50 of CN(C)C(C)(C)c1ccc(S(=O)(=O)N2[C@@H]3CC[C@H]2C[C@@H](NC(=O)c2cc(C4CC4)on2)C3)cc1 [compound 988] is ____.
Response line: 1670

Prompt line: Fill in the blank: the reported IC50 of O=C(N[C@H]1C[C@H]2CC[C@@H](C1)N2S(=O)(=O)N1CC2CCC(C1)N2CCN1CCOCC1)c1cc(C2CC2)on1 [compound 967] is ____.
Response line: 503

Prompt line: Fill in the blank: the reported IC50 of CN(CCN1CCOCC1)C1CCN(S(=O)(=O)N2[C@@H]3CC[C@H]2C[C@@H](NC(=O)c2cc(C4CC4)on2)C3)CC1 [compound 973] is ____.
Response line: 1020

----------
study.system: UniProtKB Q9H7B4
run.description: SMYD3 biochemical assay (SPA, 3H-SAM methylation of MEKK2 protein substrate)
protocol.conditions: read-out: SMYD3 Biochem IC50*
value.kind: IC50 (nM)
Provide the reading as a plain figure in nM.

Study these solved cases before continuing.
compound | study.system | unit.abbrev | IC50
CNC1CCC(CS(=O)(=O)N2CC[C@H](NC(=O)c3cc(C4CC4)on3)C[C@@H]2C)C1 (some centres unmarked) [compound 802] | UniProtKB Q9H7B4 | nM | 2.3
C[C@H]1C[C@@H](NC(=O)c2cc(C3CC3)on2)CCN1S(=O)(=O)N1CCC2(CCCN2)CC1 [compound 804] | UniProtKB Q9H7B4 | nM | 2.36
C[C@H]1C[C@@H](NC(=O)c2cc(C3CC3)on2)CCN1S(=O)(=O)N1CCC(N(C)CCN2CCOCC2)CC1 [compound 935] | UniProtKB Q9H7B4 | nM | 43
C[C@H]1C[C@@H](NC(=O)c2cc(C3CC3)on2)CCN1S(=O)(=O)CC[C@H]1CCNC1 [compound 858] | UniProtKB Q9H7B4 | nM | 7.2

Pending compound:
Prompt line: Fill in the blank: the reported IC50 of C[C@H]1C[C@@H](NC(=O)c2cc(C3CC3)on2)CCN1S(=O)(=O)N1CCC(C)(N)CC1 [compound 774] is ____.
Response line: 1.04

----------
study.system: SMYD3 (Homo sapiens (Human))
run.description: SMYD3 biochemical assay (SPA, 3H-SAM methylation of MEKK2 protein substrate)
protocol.conditions: read-out: SMYD3 Biochem IC50 (μM)*
Structures can show the parent of a compound that is named as a salt.
value.kind: log10(IC50) (log10 of the value in µM)
Transform log10 | Measure IC50 | Unit µM

molecule | observed.value
O=C(NC1CCN(C[C@H](O)Cc2ccc(O)cc2)CC1)c1cc(C2CC2)on1 | 1.63
C[C@@H]1CN(C(=O)CN)CC[C@@H]1NC(=O)c1cc(C2CC2)on1 | 1.10
NCCCC(=O)N1CCC(NC(=O)c2cc(C3CC3)on2)C(C(F)(F)F)C1 (stereo not drawn) | 0.08
O=C(N[C@@H]1CCN(C(=O)CC2CCNCC2)C[C@H]1CO)c1cc(C2CC2)on1 | 0.48
O=C(N[C@H]1CCN(C(=O)CC2CCNCC2)[C@H](Cc2ccccc2)C1)c1cc(C2CC2)on1 | 0.26

Prompt line: Fill in the blank: the reported log10(IC50) of C[C@@H](N)CC(=O)NC[C@@H](Cc1ccc(O)c(I)c1)C(=O)N1CCC(NC(=O)c2cc(C3CC3)on2)CC1 is ____.
Response line: 1.14

Prompt line: Fill in the blank: the reported log10(IC50) of C[C@H]1C[C@@H](NC(=O)c2cc(C3CC3)on2)CCN1S(=O)(=O)c1ccc(NCCN2CCOCC2)nc1 [Cpd. No. 458, dihydrochloride] is ____.
Response line: -0.88

Prompt line: Fill in the blank: the reported log10(IC50) of C[C@H]1C[C@H](NC(=O)c2cc(C3CC3)on2)CCN1C(=O)CCN is ____.
Response line: 0.82

Prompt line: Fill in the blank: the reported log10(IC50) of C[C@H](C(=O)N1CC[C@@H](NC(=O)c2cc(C3CC3)on2)C[C@H]1C)C1CCNCC1 is ____.
Response line: 0.07

Prompt line: Fill in the blank: the reported log10(IC50) of C[C@@H]1CN(C(=O)CN)CC[C@H]1NC(=O)c1cc(C2CC2)on1 is ____.
Response line: 0.99
